Target: Prostaglandin D2 receptor 2 (Homo sapiens, UniProt Q9Y5Y4)
Sequence (Q9Y5Y4 whole entry): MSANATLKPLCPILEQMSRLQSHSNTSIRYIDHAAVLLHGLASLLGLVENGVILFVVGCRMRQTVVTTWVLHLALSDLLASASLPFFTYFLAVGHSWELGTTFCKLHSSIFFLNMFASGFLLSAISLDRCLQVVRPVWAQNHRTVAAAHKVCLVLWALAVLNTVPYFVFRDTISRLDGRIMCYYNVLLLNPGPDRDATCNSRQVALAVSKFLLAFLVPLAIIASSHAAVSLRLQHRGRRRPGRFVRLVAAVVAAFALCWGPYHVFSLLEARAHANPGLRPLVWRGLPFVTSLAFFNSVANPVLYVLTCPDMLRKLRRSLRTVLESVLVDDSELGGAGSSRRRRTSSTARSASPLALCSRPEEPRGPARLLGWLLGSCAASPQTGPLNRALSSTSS
Experiment: Inhibitory activity against CRTH-2 in hCRTH-2 binding assay using HEK293 cell membranes
pKi: −log10 of the molar value.
Readout name: pKi

smi=O=C(O)CCn1c2c(c3cc(NS(=O)(=O)c4ccc(F)cc4)ccc31)CCCC2 measured_value=6.60
